Measured MRT inf by item
test: Monkey pharmacokinetic studies; format: in vivo, male Non-Naïve Cynomolgus Monkeys; details: male, cynomolgus monkey, plasma, PO 0.3 mg/kg, read-out: MRTInf—obs
Recorded metric: MRT inf

| Molecule | Endpoint value |
| --- | --- |
| CC(C)(C)NC[C@H](O)c1cccc(C(F)(F)F)n1 | 4.99 h |
| CC(C)(C)NC[C@H](O)c1cccc(C#N)n1 | 5.11 h |

* * *

Experiment: Mouse CNS exposure measurement (plasma, CSF, brain)
Format: in vivo, male C57BL/6J mice
Settings: male, C57BL/6J, plasma, PO 5 mg/kg, 100 min, read-out: Concentration, Plasma
Protocol: These rats were typically about 6-8 weeks old, weighing 200 g to 300 g. Animals were fasted overnight and free access to food 4 hours after dosing. […] Samples were analyzed using LC-MS/MS. […] For brain sampling, the rats were fully exsanguinated by using a risen of carbon dioxide prior to brain collection. […] The actual concentration is the detected value multiplied by the dilution factor. […]
Recorded metric: concentration at 100 min (ng/mL)

| Molecule | Recorded metric | Endpoint value |
| --- | --- | --- |
| CC(C)(C)NC[C@H](O)c1cccc(C#N)n1 | concentration at 100 min | 1340 |

Hello, the source for this data is patent US10947196B2, in case you need it.
